experiment: in vivo; settings: male, Wistar, rat, plasma, iv, 12 mg/kg; SD
valueKind: cmax (ng/mL)
Quick reminder: number only, in ng/mL, skip the unit.

response.value for CCCCCCCCCC(=O)N[C@@H](Cc1c[nH]c2ccccc12)C(=O)N[C@H](CC(N)=O)C(=O)N[C@@H](CC(=O)O)C(=O)N[C@@H]1C(=O)NCC(=O)N[C@@H](CCCN)C(=O)N[C@@H](CC(=O)O)C(=O)N[C@H](C)C(=O)N[C@@H](CC(=O)O)C(=O)NCC(=O)N[C@H](CO)C(=O)N[C@@H]([C@H](C)CC(=O)O)C(=O)N[C@@H](CC(=O)c2ccccc2N)C(=O)O[C@@H]1C (field: cmax) = 106000

====

experiment: in vivo; conditions: male, Wistar, rat, plasma, sc, 90 mg/kg; SD
valueKind: half-life (h)
Quick reminder: number only, in h, skip the unit.

response.value for CCCCCCCCCC(=O)N[C@@H](Cc1c[nH]c2ccccc12)C(=O)N[C@H](CC(N)=O)C(=O)N[C@@H](CC(=O)O)C(=O)N[C@@H]1C(=O)NCC(=O)N[C@@H](CCCN)C(=O)N[C@@H](CC(=O)O)C(=O)N[C@H](C)C(=O)N[C@@H](CC(=O)O)C(=O)NCC(=O)N[C@H](CO)C(=O)N[C@@H]([C@H](C)CC(=O)O)C(=O)N[C@@H](CC(=O)c2ccccc2N)C(=O)O[C@@H]1C [daptomycin, Daptomycin] (field: half-life) = 2.9

====

assay: in vivo; conditions: male, Wistar, rat, plasma, iv, 12 mg/kg; SD
valueKind: half-life (h)
Quick reminder: number only, in h, skip the unit.

response.value for CCCCCCCCCC(=O)N[C@@H](Cc1c[nH]c2ccccc12)C(=O)N[C@H](CC(N)=O)C(=O)N[C@@H](CC(=O)O)C(=O)N[C@@H]1C(=O)NCC(=O)N[C@@H](CCCN)C(=O)N[C@@H](CC(=O)O)C(=O)N[C@H](C)C(=O)N[C@@H](CC(=O)O)C(=O)NCC(=O)N[C@H](CO)C(=O)N[C@@H]([C@H](C)CC(=O)O)C(=O)N[C@@H](CC(=O)c2ccccc2N)C(=O)O[C@@H]1C (field: half-life) = 4.6

====

experiment: in vivo; conditions: male, Wistar, rat, plasma, iv, 12 mg/kg; SD
valueKind: Tmax (min)
Quick reminder: number only, in min, skip the unit.

response.value for CCCCCCCCCC(=O)N[C@@H](Cc1c[nH]c2ccccc12)C(=O)N[C@H](CC(N)=O)C(=O)N[C@@H](CC(=O)O)C(=O)N[C@@H]1C(=O)NCC(=O)N[C@@H](CCCN)C(=O)N[C@@H](CC(=O)O)C(=O)N[C@H](C)C(=O)N[C@@H](CC(=O)O)C(=O)NCC(=O)N[C@H](CO)C(=O)N[C@@H]([C@H](C)CC(=O)O)C(=O)N[C@@H](CC(=O)c2ccccc2N)C(=O)O[C@@H]1C (field: Tmax) = 18

====

experiment: in vivo; conditions: male, Wistar, rat, plasma, sc, 90 mg/kg; SD
valueKind: cmax (ng/mL)
Quick reminder: number only, in ng/mL, skip the unit.

response.value for CCCCCCCCCC(=O)N[C@@H](Cc1c[nH]c2ccccc12)C(=O)N[C@H](CC(N)=O)C(=O)N[C@@H](CC(=O)O)C(=O)N[C@@H]1C(=O)NCC(=O)N[C@@H](CCCN)C(=O)N[C@@H](CC(=O)O)C(=O)N[C@H](C)C(=O)N[C@@H](CC(=O)O)C(=O)NCC(=O)N[C@H](CO)C(=O)N[C@@H]([C@H](C)CC(=O)O)C(=O)N[C@@H](CC(=O)c2ccccc2N)C(=O)O[C@@H]1C [daptomycin, Daptomycin] (field: cmax) = 178000
